# tested-on: MAO-B (Rattus norvegicus, UniProt P19643)
# Construct: from tissue; host or cells: rat brain crude mitochondrial fraction
# Sequence (P19643 1-520): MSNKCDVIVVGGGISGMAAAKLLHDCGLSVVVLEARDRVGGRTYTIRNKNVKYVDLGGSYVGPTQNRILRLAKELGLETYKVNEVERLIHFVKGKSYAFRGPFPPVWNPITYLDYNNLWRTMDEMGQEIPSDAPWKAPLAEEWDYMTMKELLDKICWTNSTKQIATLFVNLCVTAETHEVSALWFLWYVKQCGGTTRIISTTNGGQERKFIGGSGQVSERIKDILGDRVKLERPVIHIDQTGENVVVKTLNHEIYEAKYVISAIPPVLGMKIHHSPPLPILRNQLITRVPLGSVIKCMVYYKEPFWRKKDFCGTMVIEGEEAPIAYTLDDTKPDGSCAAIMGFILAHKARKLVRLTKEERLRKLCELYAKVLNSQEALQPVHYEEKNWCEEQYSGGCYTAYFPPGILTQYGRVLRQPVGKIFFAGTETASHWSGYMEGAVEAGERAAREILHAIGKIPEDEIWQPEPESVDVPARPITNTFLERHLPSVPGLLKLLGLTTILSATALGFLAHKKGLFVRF
# procedure-text: In vitro MAO-B enzyme activity radioenzymatic assay
# Format: biochemical
# measurement-setup: 100 μM compound, rat brain crude mitochondrial fraction, 14C-PEA substrate
Counter-ions that a name gives are not always drawn.
Give measured inhibition at 100 µM for each item. Keep answers brief.
Kindly write the number and append the unit.

Ask | Need inhibition at 100 µM, item COc1cc(CCNC(C(=O)N2CCOCC2)c2ccccc2)ccc1OCc1cccc(F)c1 (stereo not drawn) [Example 33, hydrochloride]
Reply | 0%

Ask | Report inhibition at 100 µM for COc1cc(CCN(CC(=O)NCCN(C)C)Cc2ccccc2)ccc1OCc1cccc(F)c1 [Example 43, hydrochloride] please.
Reply | 33%

Ask | Item under review: CNC(=O)CN(CCc1ccc(OCc2cccc(F)c2)c(OC)c1)CC(C)C [Example 2, hydrochloride] . Reported inhibition at 100 µM?
Reply | 53%

Ask | For the molecule shown here, COc1cc(CCN(CC(=O)NCC(C)(C)N)Cc2ccccc2)ccc1OCc1cccc(F)c1 [Example 42, hydrochloride] , give the reported inhibition at 100 µM.
Reply | 32%

Ask | Any idea what inhibition at 100 µM was measured for CCNC(=O)CN(CCc1ccc(OCc2cccc(F)c2)c(OC)c1)Cc1ccccc1 [Example 37, hydrochloride] ?
Reply | 4%

Ask | Looking for the measured inhibition at 100 µM of CC(C)(N)CNC(=O)CN(CCc1cccc(OCc2cccc(F)c2)c1)Cc1ccco1 [Example 72, dihydrochloride] , can you help?
Reply | 31%

Ask | Form field: reported inhibition at 100 µM of COc1cc(CCN(CC(=O)N(C)C)Cc2ccccc2)ccc1OCc1cccc(F)c1 [Example 20, hydrochloride]
Reply | 3%

Ask | // returns reported inhibition at 100 µM for input COc1cc(CCN(CC(=O)NCCC2CCCN2C)Cc2ccccc2)ccc1OCc1cccc(F)c1 (stereo not drawn) [Example 44, hydrochloride]
Reply | 39%

Ask | Query: inhibition at 100 µM; subject: CN(C)CCNC(=O)CN(CCc1cccc(OCc2cccc(F)c2)c1)Cc1ccco1 [Example 71, dihydrochloride]
Reply | 34%

Ask | Entry under review: C[C@H](NCc1ccc(OCc2cccc(F)c2)cc1)C(N)=O [safinamide, reference compound] . Reported inhibition at 100 µM?
Reply | 100%

Ask | So what does the record say about inhibition at 100 µM for COc1cc(CCNC(C(=O)N(C)C)c2ccccc2)ccc1OCc1cccc(F)c1 (stereo not drawn) [Example 32, hydrochloride] ?
Reply | 0%

Ask | Could you share which inhibition at 100 µM value was measured for COc1cc(CCN(CC(=O)N2CCCC2)Cc2ccccc2)ccc1OCc1cccc(F)c1 [Example 40, hydrochloride] ?
Reply | 11%
